- EXPERIMENTAL DETAILS: qHTS assay to identify small molecule agonists of the estrogen related receptor (ERR) signaling pathway from Tox21 library (AID 1224849); note: % is set by controls: 0 for no effect and ±100 for the full control effect; nearly all actives have a fitted effect of over 15% in size
- RECORDED CONDITIONS: ERR reporter cell line, ONE-Glo luciferase, 18 h; at 92.4 µM (top of the series) unless noted
- Description: National Center for Advancing Translational Sciences [NCATS] NIH Chemical Genomics Center [NCGC] U.S. Environmental Protection Agency [EPA] National Institutes of Environmental Health Sciences [NIEHS] National Toxicology Program [NTP] […] The ERR cells were dispensed at 2,000 cells/5 ul/well in 1536-well white plates using a Multidrop dispenser. […] After 30-minute incubation at room temperature, the luminescence intensity in the plates was measured using a ViewLux plate reader.
Active and inactive are the calls of the source. Calls come from the whole dose curve.
QUANTITY: activity change, positive = activation

* CC(C)(C)NC[C@H](O)c1ccc(O)cc1Cl | 0.107% [at 42.5 µM] (inactive)
* COc1cccc([C@@]2(O)CCCC[C@@H]2CN(C)C)c1 | 1.87% [at 42.5 µM] (inactive)

Attention now turns to another entry.
query: Recorded activity change, positive = activation of COc1ccc(C=O)cc1O , please.
result: 2.88% (inactive)
